From: paper PMC3188589

- Substrate: O=C(O)C(=O)CC(O)C(=O)O
- test-description: purified protein
- Type: biochemical, Homo sapiens
- conditions: racemic HOG, 100 mM TRIS pH 8.5, 37°C, aldol cleavage
Listing: Km of selected proteins
Dear colleague, please return just the value in µM, with no unit written.

| protein | readout | test-result |
| --- | --- | --- |
| human HOGA (hHOGA) (Homo sapiens; N78A) (protein, His-tag (WT, Y140F) cleavable by PreScission leaving GPH, 33,097 Da tag-free; S77, N78 and S198 mutants as MBP fusion, MBP cleaved; tetramer) ASGEGKKVDIAGIYPPVTTPFTATAEVDYGKLEENLHKLGTFPFRGFVVQGSAGEFPFLTSSERLEVVSRVRQAMPKNRLLLAGSGCESTQATVEMTVSMAQVGADAAMVVTPCYYRGRMSSAALIHHYTKVADLSPIPVVLYSVPANTGLDLPVDAVVTLSQHPNIVGMKDSGGDVTRIGLIVHKTRKQDFQVLAGSAGFLMASYALGAVGGVCALANVLGAQVCQLERLCCTGQWEDAQKLQHRLIEPNAAVTRRFGIPGLKKIMDWFGYYGGPCRAPLQELSPAEEEALRMDFTSNGWL | Km | 66 |

Would you kindly look at the next entry?
q: Which Km is reported for this protein? human HOGA (hHOGA) (Homo sapiens; S77A) (protein, His-tag (WT, Y140F) cleavable by PreScission leaving GPH, 33,097 Da tag-free; S77, N78 and S198 mutants as MBP fusion, MBP cleaved; tetramer) ASGEGKKVDIAGIYPPVTTPFTATAEVDYGKLEENLHKLGTFPFRGFVVQGANGEFPFLTSSERLEVVSRVRQAMPKNRLLLAGSGCESTQATVEMTVSMAQVGADAAMVVTPCYYRGRMSSAALIHHYTKVADLSPIPVVLYSVPANTGLDLPVDAVVTLSQHPNIVGMKDSGGDVTRIGLIVHKTRKQDFQVLAGSAGFLMASYALGAVGGVCALANVLGAQVCQLERLCCTGQWEDAQKLQHRLIEPNAAVTRRFGIPGLKKIMDWFGYYGGPCRAPLQELSPAEEEALRMDFTSNGWL
a: 84
